- experiment description: Effect of a single 2 g dose of SYM-1219 on the plasma pharmacokinetics of EE2 and NET in healthy female subjects
- Format: in vivo, human
- test conditions: female, human, plasma, Group B2 Period 2: SYM-1219 2 grams on Day 1, EE2/NET on Day 2; read-out: EE2 Cmax, Mean
measurement type: Cmax (ng/mL)
Answers are plain numbers, in ng/mL.

[ask] Using the record for C#C[C@]1(O)CC[C@H]2[C@@H]3CCc4cc(O)ccc4[C@H]3CC[C@@]21C [EE2, ethinyl estradiol] , report its Cmax.
[reply] 0.0926

---

- experiment description: Effect of a single 2 g dose of SYM-1219 on the plasma pharmacokinetics of EE2 and NET in healthy female subjects
- Assay type: in vivo, human
- test conditions: female, human, plasma, Group B1 Period 1: EE2/NET alone; read-out: NET t1/2, Median (converted)
measurement type: half-life (h)
Give bare numbers, in h.

[ask] # get_value(readout='half-life', item= C#C[C@]1(O)CC[C@H]2[C@@H]3CCC4=CC(=O)CC[C@@H]4[C@H]3CC[C@@]21C )
[reply] 8.71
